Recorded measurements of Growth Rate, one per entry
# Test system: U2OS
# Assay Method Text: Incucyte cell viability with U2OS; note: unitless GR value; below 1 slowed growth and below 0 cell loss
# Format: toxicity, cell-based
# Measurement Setup: human, 0 h, 10 µM, compound concentration 10 uM, replicate number 2
A bare number is all that is needed in reply.

Illustrative cases are given below, each with its answer.
Molecule	Growth Rate
CN1CCC(C#N)(NC(=O)[C@@H](NC(=O)N2CCOCC2)C(C)(C)C)CC1	0.61
CCOC(=O)C1=C[C@]2(CC)CCCN3CCc4c(n1c1ccccc41)[C@@H]32 [VINPOCETINE]	-0.97
CC1(C)C[C@@H]1C(=O)N/C(=C\CCCCSC[C@H](N)C(=O)O)C(=O)O [CILASTATIN]	0.88
N#Cc1ccc(C#CC[C@@H](C#N)NC(=O)[C@H]2CCCCN2)cc1F.O=C(O)C(F)(F)F	0.12
CC(=O)c1c(C)c2cnc(Nc3ccc(N4CCN(CCCCNC(=O)COc5cccc6c5C(=O)N(C5CCC(=O)NC5=O)C6=O)CC4)cn3)nc2n(C2CCCC2)c1=O (stereo not drawn)	0.65
CCN1C(=O)c2cc(C)ccc2N(C)c2ncccc21	0.61

Shift focus to the following entry.
Input `NC(=O)c1sc2nc(N3CCC(NC[C@H](O)c4ccccn4)CC3)cc(C(F)(F)F)c2c1N` . Output Growth Rate: 0.65

---

Recorded measurements of Growth Rate, one per entry
# Tested on: Fibroblast
# Assay Method Text: Incucyte cell viability with human fibroblast; note: unitless GR value; below 1 slowed growth and below 0 cell loss
# Assay type: toxicity, cell-based
# Measurement Setup: 6 h, 10 µM, compound concentration 10 uM, replicate number 1

Compound	Growth Rate
COc1cc(O)c(C(CC(=O)N2C[C@H](C)C[C@H](C)C2)c2ccc3c(c2)OCO3)c(OC)c1 (some centres undefined)	-0.32

Input CC(C)(O)[C@H]1CC[C@H](Nc2ccc3ncc(-c4cccc(C(F)(F)F)c4)n3n2)CC1 [NUVISERTIB] . Output Growth Rate: -0.74

Input `CCn1c(CNC(=O)c2ncc(C)nc2N)[n+](CC)c2ccc(C(=O)N(C)CCN(C)C)cc21.Cl.Cl.[Cl-]` . Output Growth Rate: 0

Input `CO[C@H]1CC[C@H](N(c2cc(F)c(Oc3ncc(Cn4nccn4)cc3C(F)(F)F)cc2C(=O)O)C(=O)[C@H]2CC[C@H](C)CC2)CC1` . Output Growth Rate: 0.07

Input `O=C(O)c1ccc(S(=O)(=O)N(Cc2ccc(OC(F)(F)F)cc2)c2ncc(C(F)(F)F)cc2Cl)cc1` . Output Growth Rate: 0.15

---

# Tested on: HEK-293T
# Assay Method Text: Incucyte cell viability with HEK293T; note: unitless GR value; below 1 slowed growth and below 0 cell loss
# Type: toxicity, cell-based
# Measurement Setup: human, 0 h, 10 µM, compound concentration 10 uM, replicate number 1
The label is 1 for Growth Rate below 0.8 and -1 for Growth Rate equal to or exceeding 0.8.

Study these solved cases before continuing.
Compound	Assigned Category
Cc1nc2ccccc2c(-c2ccc3c4c(ccnc24)CCO3)c1[C@H](OC(C)(C)C)C(=O)O	1
CSc1nc2c(c(=O)n(C)c(=O)n2C)n1C	1
CN(C)c1cc2c(Nc3ccc4c(cnn4Cc4ccccc4)c3)ncnc2cn1 [GW282974X]	1

Now examine the next entry.
Confirm or reject: Growth Rate of `CN1CCC(C#N)(NC(=O)[C@@H](NC(=O)N2CCOCC2)C(C)(C)C)CC1` lies strictly below 0.8
-1
